pIC50: −log10 of the molar value.
Collected set of pIC50 measured with Cytochrome P450 2C9 (Homo sapiens, UniProt P11712) across studies.

Solved entries (count: 5):
Cc1ccc(C)c(OCCCC(C)(C)C(=O)O)c1    5.02
O=C(OCc1ccccc1)N1CCC(CNc2ccccn2)CC1    < 4.60
Cc1ccc(-c2ncnc(Nc3ccc(CN)cc3)c2O)cc1    5.77
Nc1nc2ccc(C(=O)NCc3ccccc3N)cc2s1    < 4.60
COCC(=O)O[C@]1(CCN(C)CCCc2nc3ccccc3[nH]2)CCc2cc(F)ccc2[C@@H]1C(C)C    4.55

Note: attention shifts to another entry.
query: Give its pIC50 value. Item: CCCNC1CN(c2ccnc(N)n2)C1.O.O=C(O)/C=C/C(=O)O
result: < 4.60
